# TARGET_SYSTEM: MOR
# PROTOCOL: Radioligand binding assay at μ opioid receptor
PROPERTY_NAME: pKi
Note on pKi: it is the negative log10 of concentration, concentration in mol/L.

input: Name the reported pKi value associated with the molecule Cc1cc(O)cc(C)c1C[C@H](N)C(=O)N[C@H](C)C(=O)NCC(=O)N[C@@H](Cc1ccc(F)cc1)C(=O)N1CCC[C@H]1C(=O)N[C@@H](CC(C)C)C(=O)N[C@@H](Cc1c[nH]c2ccccc12)C(=O)NCc1cc(C(F)(F)F)cc(C(F)(F)F)c1 [AKG127]
output: 9.00

input: Name the reported pKi value associated with the molecule CC(C)C[C@H](NC(=O)[C@@H]1CCCN1C(=O)Cc1ccc(NC(=O)[C@H](Cc2ccccc2)N(C)C(=O)CNC(=O)[C@@H](C)NC(=O)[C@@H](N)Cc2ccc(O)cc2)cc1)C(=O)N[C@@H](Cc1c[nH]c2ccccc12)C(=O)NCc1cc(C(F)(F)F)cc(C(F)(F)F)c1 [AKG177]
output: 9.00

====

Assignment: determine reported Log[IC50±] (μ) for the given molecules.
# TARGET_SYSTEM: MOR
# PROTOCOL: Radioligand binding assay at μ opioid receptor
# TEST_CONDITIONS: log IC50 ± error
Non-standard residues stand in square brackets, D forms with d. Residues, ends and D or L forms follow the SMILES beside them. *: point of attachment. NH(3,5-(CF3)2-benzyl) = FC(F)(F)c1cc(CN*)cc(C(F)(F)F)c1; Dmt = Cc1cc(O)cc(C)c1C[C@H](N)C(=O)O; NMeF = CN[C@@H](Cc1ccccc1)C(=O)O
API note: the answer field is a bare number with no unit suffix.

input: Name the reported Log[IC50±] (μ) value associated with the molecule Cc1cc(O)cc(C)c1C[C@H](N)C(=O)N[C@H](C)C(=O)NCC(=O)N(C)[C@@H](Cc1ccccc1)C(=O)N[C@@H](CCC(N)=O)C(=O)NCC(=O)N1CCC[C@H]1C(=O)N[C@@H](CC(C)C)C(=O)N[C@@H](Cc1c[nH]c2ccccc12)C(=O)NCc1cc(C(F)(F)F)cc(C(F)(F)F)c1 [AKG-SK-146] (H-[Dmt][dA]G[NMeF]QGPLW-{NH(3,5-(CF3)2-benzyl)}; N-terminus assumed)
output: −8.94

input: Name the reported Log[IC50±] (μ) value associated with the molecule CC(C)C[C@H](NC(=O)[C@@H]1CCCN1C(=O)[C@H](CC(N)=O)NC(=O)[C@H](Cc1ccccc1)NC(=O)CNC(=O)[C@@H](C)NC(=O)[C@@H](N)Cc1ccc(O)cc1)C(=O)N[C@@H](Cc1c[nH]c2ccccc12)C(=O)NCc1cc(C(F)(F)F)cc(C(F)(F)F)c1 [AKG104]
output: −6.93

input: Name the reported Log[IC50±] (μ) value associated with the molecule CC(C)C[C@H](NC(=O)[C@@H]1CCCN1C(=O)[C@H](CCC(N)=O)NC(=O)[C@H](Cc1ccccc1)N(C)C(=O)CNC(=O)[C@@H](C)NC(=O)[C@@H](N)Cc1ccc(O)cc1)C(=O)N[C@@H](Cc1c[nH]c2ccccc12)C(=O)NCc1cc(C(F)(F)F)cc(C(F)(F)F)c1 [AKG129]
output: −7.84

input: Name the reported Log[IC50±] (μ) value associated with the molecule CCCC[C@H](NC(=O)[C@H](Cc1ccccc1)N(C)C(=O)CNC(=O)[C@@H](C)NC(=O)[C@@H](N)Cc1ccc(O)cc1)C(=O)N1CCC[C@H]1C(=O)N[C@@H](CC(C)C)C(=O)N[C@@H](Cc1c[nH]c2ccccc12)C(=O)NCc1cc(C(F)(F)F)cc(C(F)(F)F)c1 [AKG112]
output: −7.51

====

# TARGET_SYSTEM: MOR
# PROTOCOL: Radioligand binding assay at μ opioid receptor
# Description: Binding affinities of these ligands were measured on radioligand binding assays. […] ([43]).
PROPERTY_NAME: pKi
Note on pKi: it is the negative log10 of concentration, concentration in mol/L.

input: Name the reported pKi value associated with the compound CC(C)C[C@H](NC(=O)[C@@H]1CCCN1C(=O)[C@H](CCC(N)=O)NC(=O)[C@H](Cc1ccccc1)N(C)C(=O)CNC(=O)[C@@H](C)NC(=O)[C@@H](N)Cc1ccc(O)cc1)C(=O)N[C@@H](Cc1c[nH]c2ccccc12)C(=O)NCc1cc(C(F)(F)F)cc(C(F)(F)F)c1
output: 8.15

input: Name the reported pKi value associated with the compound CC(C)C[C@H](NC(=O)[C@@H]1CCCN1C(=O)[C@@H](CO)NC(=O)[C@H](Cc1ccccc1)NC(=O)CNC(=O)[C@@H](C)NC(=O)[C@@H](N)Cc1ccc(O)cc1)C(=O)N[C@@H](Cc1c[nH]c2ccccc12)C(=O)NCc1cc(C(F)(F)F)cc(C(F)(F)F)c1
output: 6.70

====

Assignment: determine reported Ki^hNK1/Ki^rNK1 for the given compounds.
# TARGET_SYSTEM: hNK1 (Homo sapiens, UniProt P25103)
# Construct: expressed in transfected cells; host or cells: CHO
# Sequence (P25103 whole entry): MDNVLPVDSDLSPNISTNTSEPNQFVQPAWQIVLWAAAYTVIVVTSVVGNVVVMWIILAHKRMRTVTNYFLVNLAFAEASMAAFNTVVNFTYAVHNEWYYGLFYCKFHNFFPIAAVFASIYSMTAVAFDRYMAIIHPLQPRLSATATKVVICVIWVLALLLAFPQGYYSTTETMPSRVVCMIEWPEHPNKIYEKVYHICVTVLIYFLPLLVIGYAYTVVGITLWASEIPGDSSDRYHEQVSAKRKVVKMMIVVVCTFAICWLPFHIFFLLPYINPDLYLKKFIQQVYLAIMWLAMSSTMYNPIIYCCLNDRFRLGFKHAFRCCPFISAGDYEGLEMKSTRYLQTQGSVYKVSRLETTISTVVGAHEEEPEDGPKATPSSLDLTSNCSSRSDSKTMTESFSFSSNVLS
# PROTOCOL: hNK1/CHO cell membrane radioligand binding assay ([3H]SP)
# TEST_CONDITIONS: ratio human/rat NK1

input: Name the reported Ki^hNK1/Ki^rNK1 value associated with the compound CC(C)C[C@H](NC(=O)[C@@H]1CCCN1C(=O)[C@H](Cc1ccc(F)cc1)NC(=O)CNC(=O)[C@@H](C)NC(=O)[C@@H](N)Cc1ccc(O)cc1)C(=O)N[C@@H](Cc1c[nH]c2ccccc12)C(=O)NCc1cc(C(F)(F)F)cc(C(F)(F)F)c1
output: 1/6

input: Name the reported Ki^hNK1/Ki^rNK1 value associated with the compound CC(C)C[C@H](NC(=O)[C@@H]1CCCN1C(=O)c1ccc(CNC(=O)[C@H](Cc2ccccc2)N(C)C(=O)CNC(=O)[C@@H](C)NC(=O)[C@@H](N)Cc2ccc(O)cc2)cc1)C(=O)N[C@@H](Cc1c[nH]c2ccccc12)C(=O)NCc1cc(C(F)(F)F)cc(C(F)(F)F)c1
output: 1/13

====

Assignment: determine reported Ki for the given compounds.
# TARGET_SYSTEM: DOR (Homo sapiens, UniProt P41143)
# Sequence (P41143 whole entry): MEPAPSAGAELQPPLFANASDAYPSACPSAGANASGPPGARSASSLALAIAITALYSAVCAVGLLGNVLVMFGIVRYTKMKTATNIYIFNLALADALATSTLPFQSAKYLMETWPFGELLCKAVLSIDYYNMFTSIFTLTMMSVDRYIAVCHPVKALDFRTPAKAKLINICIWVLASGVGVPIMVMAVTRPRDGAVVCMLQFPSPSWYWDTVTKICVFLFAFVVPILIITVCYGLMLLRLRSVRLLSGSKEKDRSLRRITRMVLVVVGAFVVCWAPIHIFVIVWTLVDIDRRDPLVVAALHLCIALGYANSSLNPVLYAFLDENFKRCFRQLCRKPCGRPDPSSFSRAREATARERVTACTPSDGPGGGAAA
# PROTOCOL: Radioligand binding assay at δ opioid receptor
# TEST_CONDITIONS: Ki^δ (nM)
Non-standard residues stand in square brackets, D forms with d. Residues, ends and D or L forms follow the SMILES beside them. *: point of attachment. NH(3,5-(CF3)2-benzyl) = FC(F)(F)c1cc(CN*)cc(C(F)(F)F)c1; NMeF = CN[C@@H](Cc1ccccc1)C(=O)O; Orn = NCCC[C@H](N)C(=O)O
I only need the number, in nM, no unit after it.

input: Name the reported Ki value associated with the compound CC(C)C[C@H](NC(=O)[C@@H]1CCCN1C(=O)[C@@H](CCC(N)=O)NC(=O)[C@H](Cc1ccccc1)NC(=O)CNC(=O)[C@@H](C)NC(=O)[C@@H](N)Cc1ccc(O)cc1)C(=O)N[C@@H](Cc1c[nH]c2ccccc12)C(=O)NCc1cc(C(F)(F)F)cc(C(F)(F)F)c1
output: 72

input: Name the reported Ki value associated with the compound CC(C)C[C@H](NC(=O)[C@@H]1CCCN1C(=O)[C@H](CCCN)NC(=O)[C@H](Cc1ccccc1)N(C)C(=O)CNC(=O)[C@@H](C)NC(=O)[C@@H](N)Cc1ccc(O)cc1)C(=O)N[C@@H](Cc1c[nH]c2ccccc12)C(=O)NCc1cc(C(F)(F)F)cc(C(F)(F)F)c1 [AKG173] (H-Y[dA]G[NMeF][Orn]PLW-{NH(3,5-(CF3)2-benzyl)})
output: 0.05

====

# TARGET_SYSTEM: MOR
# PROTOCOL: Radioligand binding assay at μ opioid receptor
# TEST_CONDITIONS: ratio of binding affinities MOR/DOR
Non-standard residues stand in square brackets, D forms with d. Residues, ends and D or L forms follow the SMILES beside them. *: point of attachment. NH(3,5-(CF3)2-benzyl) = FC(F)(F)c1cc(CN*)cc(C(F)(F)F)c1; NMePhe(4-F) = CN[C@@H](Cc1ccc(F)cc1)C(=O)O; Dmt = Cc1cc(O)cc(C)c1C[C@H](N)C(=O)O; NMeF = CN[C@@H](Cc1ccccc1)C(=O)O; Orn = NCCC[C@H](N)C(=O)O
PROPERTY_NAME: Ki^μ/Ki^δ

input: Name the reported Ki^μ/Ki^δ value associated with the compound CC(C)C[C@H](NC(=O)[C@@H]1CCCN1C(=O)Cc1ccc(NC(=O)[C@H](Cc2ccccc2)N(C)C(=O)CNC(=O)[C@@H](C)NC(=O)[C@@H](N)Cc2ccc(O)cc2)cc1)C(=O)N[C@@H](Cc1c[nH]c2ccccc12)C(=O)NCc1cc(C(F)(F)F)cc(C(F)(F)F)c1
output: 1/70

input: Name the reported Ki^μ/Ki^δ value associated with the compound Cc1cc(O)cc(C)c1C[C@H](N)C(=O)N[C@H](C)C(=O)N[C@@H](Cc1ccccc1)C(=O)NCC(=O)N[C@@H](Cc1ccc(O)cc1)C(=O)N1CCC[C@H]1C(=O)N[C@@H](CC(C)C)C(=O)N[C@@H](Cc1c[nH]c2ccccc12)C(=O)NCc1cc(C(F)(F)F)cc(C(F)(F)F)c1 [AKG118] (H-[Dmt][dA]FGYPLW-{NH(3,5-(CF3)2-benzyl)})
output: 1/3

input: Name the reported Ki^μ/Ki^δ value associated with the compound CC(C)C[C@H](NC(=O)[C@@H]1CCCN1C(=O)CNC(=O)[C@H](Cc1ccc(F)cc1)N(C)C(=O)CNC(=O)[C@@H](C)NC(=O)[C@@H](N)Cc1ccc(O)cc1)C(=O)N[C@@H](Cc1c[nH]c2ccccc12)C(=O)NCc1cc(C(F)(F)F)cc(C(F)(F)F)c1 [AKG131] (H-Y[dA]G[NMePhe(4-F)]GPLW-{NH(3,5-(CF3)2-benzyl)})
output: 11/1

input: Name the reported Ki^μ/Ki^δ value associated with the compound Cc1cc(O)cc(C)c1C[C@H](N)C(=O)N[C@H](C)C(=O)NCC(=O)N[C@@H](Cc1ccccc1)C(=O)N1CCC[C@H]1C(=O)N[C@@H](CC(C)C)C(=O)N[C@@H](Cc1c[nH]c2ccccc12)C(=O)NCc1cc(C(F)(F)F)cc(C(F)(F)F)c1
output: 3/1

input: Name the reported Ki^μ/Ki^δ value associated with the compound CC(C)C[C@H](NC(=O)[C@@H]1CCCN1C(=O)[C@H](CC(N)=O)NC(=O)[C@H](Cc1ccccc1)NC(=O)CNC(=O)[C@@H](C)NC(=O)[C@@H](N)Cc1ccc(O)cc1)C(=O)N[C@@H](Cc1c[nH]c2ccccc12)C(=O)NCc1cc(C(F)(F)F)cc(C(F)(F)F)c1
output: 3/1

input: Name the reported Ki^μ/Ki^δ value associated with the compound Cc1cc(O)cc(C)c1C[C@H](N)C(=O)N[C@H](C)C(=O)NCC(=O)N(C)[C@@H](Cc1ccc(F)cc1)C(=O)N1CCC[C@H]1C(=O)N[C@@H](CC(C)C)C(=O)N[C@@H](Cc1c[nH]c2ccccc12)C(=O)NCc1cc(C(F)(F)F)cc(C(F)(F)F)c1
output: 1/4

input: Name the reported Ki^μ/Ki^δ value associated with the compound CC(C)C[C@H](NC(=O)[C@@H]1CCCN1C(=O)[C@H](CCCN)NC(=O)[C@H](Cc1ccccc1)N(C)C(=O)CNC(=O)[C@@H](C)NC(=O)[C@@H](N)Cc1ccc(O)cc1)C(=O)N[C@@H](Cc1c[nH]c2ccccc12)C(=O)NCc1cc(C(F)(F)F)cc(C(F)(F)F)c1 [AKG173] (H-Y[dA]G[NMeF][Orn]PLW-{NH(3,5-(CF3)2-benzyl)})
output: 100/1
